The following molecules were reported with IC50 values on UniProtKB P37231 in different studies.

Exercise: Would you please give the reported IC50 of `Cc1cccc2sc(Oc3ccc(NS(=O)(=O)c4ccc(C(F)(F)F)cc4Cl)cc3Cl)nc12` with UniProtKB P37231?
Key: 10 to 30 µM

Exercise: Write down the reported IC50 (system: UniProtKB P37231) of `N#Cc1ccc2sc(Oc3cc(Cl)cc(NS(=O)(=O)c4ccc(Cl)cc4Cl)c3)nc2c1`
Key: < 1 µM

Exercise: Check UniProtKB P37231 data and give IC50 for `O=S(=O)(Nc1cc(Cl)cc(Oc2nc3ccc(Cl)cc3s2)c1)c1ccc(C(F)(F)F)cc1Cl` .
Key: < 1 µM

Exercise: Retrieve IC50 on UniProtKB P37231; query `CCCC(=O)c1nc(NS(=O)(=O)c2ccc(C(F)(F)F)cc2Cl)ccc1Sc1ccc(S(=O)(=O)C2CCOCC2)cc1`
Key: < 1 µM

Exercise: System UniProtKB P37231. Read-out IC50. Item Cc1ccc(OC(C)(Cc2ccc(OCCc3nc(C4CCCCC4)oc3C)cc2)C(=O)O)cc1C (stereo not drawn) . Report value.
Key: 0.079 µM

Exercise: Give IC50; test system UniProtKB P37231; molecule `O=S(=O)(Nc1cc(Cl)c(Cc2ccc3ccccc3n2)c(Cl)c1)c1ccc(Cl)cc1Cl`
Key: < 1 µM

Exercise: Enter recorded IC50 with UniProtKB P37231 for `CCCC(=O)c1nc(NS(=O)(=O)c2ccc(C(F)(F)F)cc2Cl)ccc1Sc1ccc(S(=O)(=O)N2CCCCC2)cc1` here.
Key: < 1 µM

Exercise: Enter measured IC50, system UniProtKB P37231, for the molecule shown: COc1cccc(OC(C)(Cc2ccc(OCCc3nc(C4CCCCC4)oc3C)cc2)C(=O)O)c1 (stereo not drawn)
Key: 0.083 µM

Exercise: // output IC50; input `Cc1nc(NS(=O)(=O)c2ccc(Cl)cc2Cl)ncc1Oc1ccc(Cl)c(Cl)c1` ; system UniProtKB P37231
Key: < 10 µM

Exercise: Param request: IC50 | system UniProtKB P37231 | item `Cc1nc(NS(=O)(=O)c2ccc(C(F)(F)F)cc2Cl)ncc1Oc1ccc(S(=O)(=O)N2CCOCC2)cc1`
Key: < 10 µM

Exercise: # return IC50 for `O=C(NCCS(=O)(=O)c1ccc(C(F)(F)F)cn1)c1ccc(-c2ccccc2)cc1` , test system: UniProtKB P37231
Key: 1.4 µM

Exercise: Enter recorded IC50 with UniProtKB P37231 for `CCCNc1nc(NS(=O)(=O)c2ccc(Cl)cc2Cl)ncc1Oc1ccc(Cl)c(Cl)c1` here.
Key: < 10 µM

Exercise: Retrieve IC50 on UniProtKB P37231; query Cc1oc(-c2ccc(-c3cccs3)cc2)nc1CCOc1ccc(CC(C)(Oc2cccc(F)c2)C(=O)O)cc1 (stereo not drawn)
Key: 0.078 µM

Exercise: Provide IC50, recorded with UniProtKB P37231, of `CCCCc1cc(NS(=O)(=O)c2ccc(Cl)cc2Cl)nnc1Sc1ccc(S(=O)(=O)N2CCCCC2)cc1`
Key: < 1 µM

Exercise: Under UniProtKB P37231: report IC50 of Cc1oc(-c2cccc(-c3ccc(F)cc3)c2)nc1CCOc1ccc(CC(C)(Oc2ccccc2)C(=O)O)cc1 (stereo not drawn) .
Key: 0.041 µM

Exercise: Send back UniProtKB P37231 IC50 of `O=S(=O)(Nc1ccc(Sc2nc3cccc(Cl)c3s2)c(Cl)c1)c1ccc(C(F)(F)F)cc1Cl` only.
Key: < 1 µM

Exercise: Report the value of IC50 obtained on UniProtKB P37231 for `Cc1cccc2sc(Oc3c(Cl)cc(NS(=O)(=O)c4ccc(C(F)(F)F)cc4Cl)cc3Cl)nc12` .
Key: 10 to 30 µM

Exercise: Report IC50 from UniProtKB P37231 testing of `O=S(=O)(Nc1cc(Cl)cc(Cc2nc3cc(Cl)ccc3s2)c1)c1ccc(Cl)cc1Cl`
Key: < 1 µM

Exercise: Quote IC50 with test system UniProtKB P37231 for `CCC(=O)c1nc(NS(=O)(=O)c2ccc(Cl)cc2Cl)ccc1Sc1ccc(S(=O)(=O)N2CCOCC2)cc1`
Key: < 1 µM

Exercise: System UniProtKB P37231. Read-out IC50. Item `COC(=O)c1ccc2ncc(Oc3c(Cl)cc(NS(=O)(=O)c4ccc(Cl)cc4Cl)cc3Cl)cc2c1` . Report value.
Key: < 1 µM

Exercise: State IC50 on UniProtKB P37231. Entry: `O=S(=O)(Nc1cc(Cl)cc(Oc2nc3c(Cl)cccc3s2)c1)c1ccc(Cl)cc1Cl`
Key: 10 to 30 µM

Exercise: Lab note: record IC50 of `O=S(=O)(Nc1cc(Cl)c(Oc2nc3ccc(Cl)cc3s2)c(Cl)c1)c1ccc(OC(F)(F)F)cc1` tested on UniProtKB P37231.
Key: 1 to 10 µM

Exercise: Fill: IC50 (UniProtKB P37231) for this molecule `O=S(=O)(Nc1cc(Cl)c(Sc2ccc3ccccc3c2)c(Cl)c1)c1ccc(C(F)(F)F)cc1Cl`
Key: < 1 µM

Exercise: Look up UniProtKB P37231 data: IC50 of `CCc1nc(NS(=O)(=O)c2ccc(C(F)(F)F)cc2Cl)ccc1Sc1ccc(S(=O)(=O)N2CCOCC2)cc1` , then report it.
Key: < 10 µM

Exercise: State recorded IC50 with UniProtKB P37231, entry `N#Cc1ccc2sc(Oc3cc(Cl)cc(NS(=O)(=O)c4ccc(C(F)(F)F)cc4Cl)c3)nc2c1` , no comment.
Key: 1 to 10 µM

Exercise: Please report IC50 with UniProtKB P37231 for item `O=S(=O)(Nc1cc(Cl)c(Cc2cnc3ccccc3c2)c(Cl)c1)c1ccc(C(F)(F)F)cc1Cl` .
Key: < 1 µM

Exercise: State the measured IC50 (UniProtKB P37231) of `Cc1nc(NS(=O)(=O)c2ccc(C(F)(F)F)cc2Cl)ncc1Sc1ccc(S(=O)(=O)N2CCOCC2)cc1`
Key: < 10 µM

Exercise: Look up UniProtKB P37231 data: IC50 of COc1cc(CC(C)(Oc2ccccc2)C(=O)O)ccc1OCCc1nc(-c2ccc(-c3ccccc3)cc2)oc1C (stereo not drawn) , then report it.
Key: 0.174 µM

Exercise: Please tell me the measured IC50 for `Cc1cc(NS(=O)(=O)c2ccc(Cl)cc2Cl)ncc1Sc1ccc(S(=O)(=O)N2CCCCC2)cc1` ; system: UniProtKB P37231.
Key: < 1 µM

Exercise: Return reported IC50 for target or system UniProtKB P37231, item `Cc1nc(NS(=O)(=O)c2ccc(Cl)cc2)ncc1Oc1ccc(S(=O)(=O)N2CCOCC2)cc1` .
Key: < 30 µM

* * *

Below are IC50 values for PPARγ (Homo sapiens, UniProt P37231) collected from several publications.

Exercise: Give a short answer stating reported IC50 for `COc1ccc2nc(Oc3c(Cl)cc(NS(=O)(=O)c4ccc(C(F)(F)F)cc4Cl)cc3Cl)sc2c1` .
Key: < 1000 nM

Exercise: Retrieve IC50 measured for `N#Cc1cc(NS(=O)(=O)c2ccc(Cl)cc2Cl)ccc1Oc1cc(F)cc(F)c1` and print it.
Key: < 10000 nM

Exercise: Given the compound `COc1nc(NS(=O)(=O)c2ccc(Cl)cc2Cl)ncc1Sc1ccc2ccccc2c1` , write its reported IC50.
Key: < 10000 nM

Exercise: Please report the measured IC50 for `O=[N+]([O-])c1ccc2nc(Oc3ccc(NS(=O)(=O)c4ccc(C(F)(F)F)cc4Cl)cc3Cl)sc2c1`
Key: < 1000 nM

Exercise: Identify the reported IC50 for the following entry. Cc1oc(C2(C)CCCCC2)nc1CCOc1ccc(CC(C)(Oc2ccccc2)C(=O)O)cc1 (centres unmarked)
Key: 11 nM

Exercise: Tell me IC50 reported for `O=S(=O)(Nc1cc(Cl)c(Sc2cnc3ccccc3c2)c(Cl)c1)c1ccc(Cl)cc1Cl`
Key: < 1000 nM

Exercise: Entry `Cc1oc(-c2ccc(-c3ccccc3)cc2)nc1CCOc1ccc(OC(C)(C)C(=O)O)c(CCc2ccccc2)c1` needs its IC50 filled in; supply it.
Key: 140 nM

Exercise: Identify the reported IC50 for the following entry. `COc1ccc(OC)c(S(=O)(=O)Nc2cc(Cl)cc(Oc3nc4cc(Cl)ccc4s3)c2)c1`
Key: > 30000 nM

* * *

Please find below IC50 data on UniProtKB P37231 compiled from the literature.

Exercise: Note IC50 for the compound shown: `Cc1nc(NS(=O)(=O)c2ccc(Cl)cc2Cl)ccc1Sc1ccc(S(=O)(=O)N2CCOCC2)cc1`
Key: < 1000 nM

Exercise: Please give measured IC50 of the following entry: `CS(=O)(=O)c1ccc2sc(Oc3c(Cl)cc(NS(=O)(=O)c4ccc(C(F)(F)F)cc4Cl)cc3Cl)nc2c1`
Key: < 1000 nM

Exercise: Recall and state the measured IC50 for `O=[N+]([O-])c1cc(C(F)(F)F)ccc1S(=O)(=O)Nc1cc(Cl)c(Oc2nc3ccc(Cl)cc3s2)c(Cl)c1` .
Key: < 1000 nM

Exercise: Identify measured IC50 associated with `CCCCc1nc(NS(=O)(=O)c2ccc(C(F)(F)F)cc2Cl)ccc1Sc1ccc(S(=O)(=O)N2CCOCC2)cc1`
Key: < 1000 nM

Exercise: Return IC50 (reported value) for this compound: `Cc1oc(-c2cccc(Br)c2)nc1CCOc1ccc(OC(C)(C)C(=O)O)cc1`
Key: 180 nM

Exercise: Identify measured IC50 corresponding to Cc1ccc(OC(C)(Cc2ccc(OCCc3nc(-c4cccs4)oc3C)cc2)C(=O)O)cc1C (centres unmarked)
Key: 88 nM

Exercise: Provide IC50 value for the following compound: CCC(Cc1ccc(OCCc2nc(-c3cccc(-c4cccs4)c3)oc2C)cc1)(Oc1ccccc1)C(=O)O (centres unmarked)
Key: 56 nM

Exercise: Please supply the value of reported IC50 for the item `CS(=O)(=O)c1ccc2nc(Oc3c(Cl)cc(NS(=O)(=O)c4ccc(C(F)(F)F)cc4Cl)cc3Cl)sc2c1`
Key: < 1000 nM

Exercise: Give the value of IC50 reported for the following: `Cc1cc(S(=O)(=O)Nc2cc(Cl)cc(Oc3nc4c(Cl)cccc4s3)c2)c(Cl)cc1Cl`
Key: 1000 to 10000 nM

Exercise: For `Cc1oc(-c2ccccc2)nc1CCOc1ccc(OC(C)(C)C(=O)O)c2ccccc12` , write its IC50.
Key: 172 nM

Exercise: Give me measured IC50, please, for this compound: `CCCOc1nc(NS(=O)(=O)c2ccc(Cl)cc2Cl)ncc1Oc1ccc(Cl)c(Cl)c1`
Key: < 10000 nM

Exercise: Please give measured IC50 of the following entry: `Cc1oc(-c2ccc(-c3ccccc3)cc2)nc1CCSc1ccc(OC(C)(C)C(=O)O)cc1`
Key: 1530 nM

Exercise: Write down IC50 measured for item `CCCCc1nc(NS(=O)(=O)c2ccc(OC)cc2)ncc1Sc1ccc(S(=O)(=O)N2CCCCC2)cc1`
Key: < 1000 nM

Exercise: Let me know recorded IC50 for `CCCOc1nc(NS(=O)(=O)c2ccc(Cl)cc2)ncc1Oc1ccc(S(=O)(=O)N2CCOCC2)cc1` , thanks.
Key: < 10000 nM

Exercise: Please look at this compound and report its IC50: `CCOC(=O)c1cc(NS(=O)(=O)c2c(C)cc(Cl)cc2Cl)ccc1Oc1cncc(Cl)c1`
Key: 800 nM

Exercise: Return IC50 (reported value) for this compound: `O=S(=O)(Nc1ccc(Oc2nc3c(Cl)cccc3s2)c(Cl)c1)c1ccc(C(F)(F)F)cc1Cl`
Key: 10000 to 30000 nM

Exercise: Answer with the recorded IC50 of `COC(=O)c1nc(NS(=O)(=O)c2ccc(Cl)cc2Cl)ccc1Sc1ccc(S(=O)(=O)N2CCCCC2)cc1` only.
Key: < 1000 nM

Exercise: Indicate its recorded IC50; the compound in question is `COc1ccc2nc(Oc3cc(Cl)cc(NS(=O)(=O)c4ccc(Cl)cc4Cl)c3)sc2c1`
Key: < 1000 nM

Exercise: Look up and state reported IC50 for `COc1cccc2sc(Oc3c(Cl)cc(NS(=O)(=O)c4ccc(Cl)cc4Cl)cc3Cl)nc12`
Key: < 1000 nM

Exercise: State, in one line, measured IC50 of `O=C(c1nc(NS(=O)(=O)c2ccc(C(F)(F)F)cc2Cl)ccc1Sc1ccc(S(=O)(=O)N2CCCC2)cc1)C1CC1`
Key: < 1000 nM
